Hi there, I'd appreciate the recorded viability, T/C for every entry that follows.
- Tested on: HOP-62 multicell spheroids with HUVEC/MSC, viability
- EXPERIMENT: Anticancer human tumor HOP-62 cell line growth inhibition [KRAS2];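 also: viability read after a week of compound exposure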;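 as to viability, T/C: 100% = DMSO vehicle-treated spheroids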
- MEASUREMENT SETUP: second compound 1 µM; first compound 0.1 µM; stronger effect = lower value
Give bare numbers, in %.

Sample answers from the record:
[[record]]
molecule = "CC(C)n1nc(-c2ccc3oc(N)nc3c2)c2c(N)ncnc21 + COc1cc2nc(C)nc(NC(C)c3cc(N)cc(C(F)(F)F)c3)c2cc1OC1CCOC1"
target_desc = "HOP-62 multicell spheroids with HUVEC/MSC, viability"
property_measured = "viability, T/C"
unit_abbreviation = "%"
data_value = 11.3

[[record]]
molecule = "Cn1nccc1Nc1nccc(-c2cc3c(s2)C(C)(C)N(CCN2CCOCC2)C3=O)n1 + COc1cc2nc(C)nc(NC(C)c3cc(N)cc(C(F)(F)F)c3)c2cc1OC1CCOC1"
target_desc = "HOP-62 multicell spheroids with HUVEC/MSC, viability"
property_measured = "viability, T/C"
unit_abbreviation = "%"
data_value = 88.3

[[record]]
molecule = "Cn1nccc1Nc1nccc(-c2cc3c(s2)C(C)(C)N(CCN2CCOCC2)C3=O)n1 + C=CC(=O)N1CCN(c2nc(=O)n(-c3c(C)ccnc3C(C)C)c3nc(-c4c(O)cccc4F)c(F)cc23)C(C)C1"
target_desc = "HOP-62 multicell spheroids with HUVEC/MSC, viability"
property_measured = "viability, T/C"
unit_abbreviation = "%"
data_value = 54.4

[[record]]
molecule = "O=C(c1cc(Cc2n[nH]c(=O)c3ccccc23)ccc1F)N1CCN(C(=O)C2CC2)CC1 + CNCc1ccccc1-c1csc(C(C)Nc2nc(C)nc3cc(OC)c(OC)cc23)c1"
target_desc = "HOP-62 multicell spheroids with HUVEC/MSC, viability"
property_measured = "viability, T/C"
unit_abbreviation = "%"
data_value = 85.3


Now examine the next entry.
For record CN(C)C/C=C/C(=O)Nc1cc2c(Nc3ccc(F)c(Cl)c3)ncnc2cc1O[C@H]1CCOC1 + C=CC(=O)N1CCN(c2nc(=O)n(-c3c(C)ccnc3C(C)C)c3nc(-c4c(O)cccc4F)c(F)cc23)C(C)C1 the listed viability, T/C is 62.4

###

- Tested on: HOP-62 multicell spheroids with HUVEC/MSC, viability
- EXPERIMENT: Anticancer human tumor HOP-62 cell line growth inhibition [KRAS2];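 also: viability read after a week of compound exposure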
- MEASUREMENT SETUP: curve of first compound; second compound 0.316 µM
PROPERTY MEASURED: IC50 (nM)
Answers are plain numbers, in nM.

Sample answers from the record:
[[record]]
compound = "CC1COCCN1c1cc(-c2ccnn2C)c2ccnc(-c3ccn[nH]3)c2n1 (stereo unspecified) + CNCc1ccccc1-c1csc(C(C)Nc2nc(C)nc3cc(OC)c(OC)cc23)c1"
property_measured = "IC50"
data_value = 61.1

[[record]]
compound = "Cn1nccc1Nc1nccc(-c2cc3c(s2)C(C)(C)N(CCN2CCOCC2)C3=O)n1 + CC1OCC2(CCN(c3cnc(Sc4ccnc(N)c4Cl)c(N)n3)CC2)C1N"
property_measured = "IC50"
data_value = 331

[[record]]
compound = "COc1cc2nccc(Oc3ccc(NC(=O)C4(C(=O)Nc5ccc(F)cc5)CC4)cc3)c2cc1OC + CC1OCC2(CCN(c3cnc(Sc4ccnc(N)c4Cl)c(N)n3)CC2)C1N"
property_measured = "IC50"
data_value = 2260


Now examine the next entry.
For record CC(=O)Nc1cccc(-n2c(=O)n(C3CC3)c(=O)c3c(Nc4ccc(I)cc4F)n(C)c(=O)c(C)c32)c1 + CC1OCC2(CCN(c3cnc(Sc4ccnc(N)c4Cl)c(N)n3)CC2)C1N the listed IC50 is 0.877
